B1: VH:VL chains; a variant is named by its letters at X, in order (parent)
chain 1: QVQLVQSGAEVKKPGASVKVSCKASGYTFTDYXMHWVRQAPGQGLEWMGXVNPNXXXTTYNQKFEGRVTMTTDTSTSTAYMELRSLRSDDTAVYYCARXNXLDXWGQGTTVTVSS
chain 2: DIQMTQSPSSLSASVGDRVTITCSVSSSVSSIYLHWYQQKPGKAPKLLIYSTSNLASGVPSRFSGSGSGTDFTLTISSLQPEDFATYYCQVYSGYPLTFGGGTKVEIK

variants of: B1; test: yeast display scFab, FACS + sequencing; details: with MET
Some of the results follow. How many sequences the whole screen found active is unknown.
reported_endpoint: antigen binding call

Reference set, count: 5
YKTGGAGV
binds
FKGRGAAV
binds
SEARSDWV
no binding
SEEGTDGV
no binding
VAGTGSLD
no binding

// antigen binding call lookup, key: FRTADVGV
no binding

Same for DKKEDSAD
no binding
